# system.under.test: Solute carrier organic anion transporter family member 1B3 (Homo sapiens)
# Sequence (Q9NPD5 whole entry): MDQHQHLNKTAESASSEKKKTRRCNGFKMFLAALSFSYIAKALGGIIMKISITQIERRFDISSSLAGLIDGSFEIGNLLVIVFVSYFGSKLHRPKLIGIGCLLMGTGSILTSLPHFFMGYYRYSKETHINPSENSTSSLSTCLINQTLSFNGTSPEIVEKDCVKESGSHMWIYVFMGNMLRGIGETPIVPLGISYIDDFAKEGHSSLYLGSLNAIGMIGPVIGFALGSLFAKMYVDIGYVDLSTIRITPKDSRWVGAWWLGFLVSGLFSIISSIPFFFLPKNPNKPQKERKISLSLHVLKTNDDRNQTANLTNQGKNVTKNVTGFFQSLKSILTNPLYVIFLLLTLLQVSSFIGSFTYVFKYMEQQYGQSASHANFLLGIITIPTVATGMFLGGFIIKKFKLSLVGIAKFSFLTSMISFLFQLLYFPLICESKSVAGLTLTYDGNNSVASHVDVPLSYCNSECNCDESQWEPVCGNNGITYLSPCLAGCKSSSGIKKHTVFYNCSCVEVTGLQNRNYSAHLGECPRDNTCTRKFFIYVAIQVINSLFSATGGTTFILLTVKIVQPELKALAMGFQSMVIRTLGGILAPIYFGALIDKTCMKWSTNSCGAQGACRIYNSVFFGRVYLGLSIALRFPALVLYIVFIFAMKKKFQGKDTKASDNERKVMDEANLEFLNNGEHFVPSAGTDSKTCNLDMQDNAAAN
# experimental.conditions: chinese hamster, cho, 10 µM
Counter-ions that a name gives are not always drawn. Residues, ends and D or L forms follow the SMILES beside them. *: point of attachment. Tfa = O=C(C(F)(F)F)*
Some molecules, each annotated with its measured residual activity.
endpoint.label: residual activity (%)

molecule	readout.value
COc1ccc(Cc2nccc3cc(OC)c(OC)cc23)cc1OC.Cl [PAPAVERINE HYDROCHLORIDE]	113.7
CNC(=N)NCCC[C@H](N)C(=O)O [TILARGININE]	97.33
CCN(CC)CCNC(=O)c1ccc(NC(C)=O)cc1.Cl [ACECAINIDE HYDROCHLORIDE]	90.6
O=C1CCc2cc(OCCCCc3nnnn3C3CCCCC3)ccc2N1 [CILOSTAZOL]	98.73
CCOCN(C(=O)CCl)c1c(C)cccc1CC [ACETOCHLOR]	84.4
CC(=O)N[C@@H](Cc1c[nH]c2ccccc12)C(=O)O [ACETYLTRYPTOPHAN]	85.99
COP(=S)(OC)Oc1ccc(SC)c(C)c1 [FENTHION]	100.4
CCCC(C)C1(CC)C(=O)NC(=O)NC1=O (stereo unspecified) [PENTOBARBITAL]	94.07
CN(C)[C@@H]1C(O)=C(C(N)=O)C(=O)[C@@]2(O)C(O)=C3C(=O)c4c(O)cccc4[C@@](C)(O)[C@H]3C[C@@H]12.Cl [TETRACYCLINE HYDROCHLORIDE]	97.72
CC(C)[C@H](NC(=O)[C@H](Cc1ccc(O)cc1)NC(=O)[C@@H](NC(=O)C(F)(F)F)C(C)C)C(=O)O [Tfa-VAL-TYR-VAL-OH] (Tfa-Val-Tyr-Val-OH)	96.81
Nc1nc(=O)c2c([nH]1)NCC(CNc1ccc(C(=O)N[C@@H](CCC(=O)[O-])C(=O)[O-])cc1)N2C=O.[Ca+2] (stereo partly specified) [LEUCOVORIN CALCIUM]	90.54
C[C@@H]1C[C@H]2[C@@H]3CCC4=CC(=O)C=C[C@]4(C)[C@@]3(Cl)[C@@H](O)C[C@]2(C)[C@@]1(OC(=O)c1ccco1)C(=O)CCl [MOMETASONE FUROATE]	25.64
Cc1cc(=O)c2c(O)c(C)c(O)cc2o1 [EUGENITOL]	88.28
COC(=O)C[C@H]1C(C)(C)C(=O)[C@H]2CC3=C4CC(OC)O[C@@H](c5ccoc5)[C@@]4(C)CCC3[C@]1(C)C2=O (stereo partly specified) [16-DEOXOMEXICANOLIDE 16-METHYL ETHER]	141.6
Cc1cc(O)c(C=O)c(O)c1C(=O)O [HAEMATOMMIC ACID]	81.5
Cl.Cl.NCCSSCCN [CYSTAMINE DIHYDROCHLORIDE]	89.2
